assay: Inhibition of Malassezia globosa beta carbonic anhydrase preincubated for 15 mins prior to testing by stopped flow CO2 hydrase assay
Observation type: pKi
pKi field: float, defined as -log10 of concentration (mol/L).

Below, 5 molecules whose answers are already recorded.
Molecule: Nc1cccc(S(=O)(=O)N[N+](=O)[O-])c1
Endpoint result: 5.56

Molecule: N#CCNc1ccc(S(=O)(=O)N[N+](=O)[O-])cc1
Endpoint result: 5.46

Molecule: NCc1ccc(S(=O)(=O)N[N+](=O)[O-])cc1
Endpoint result: 5.09

Molecule: CN(C)c1ccc(S(=O)(=O)N[N+](=O)[O-])cc1
Endpoint result: 6.66

Molecule: Nc1nnc(S(=O)(=O)N[N+](=O)[O-])s1
Endpoint result: 5.35

// switching to the query molecule
Could you share which pKi value was measured for CC(=O)Nc1nnc(S(N)(=O)=O)s1 [ACETAZOLAMIDE] ?
4.13
